Just for reference, patent US11407796B2 is where these values come from.

ASSAY_CONTEXT: plasma
Peptide text beside a SMILES is read from it.
QUANTITY_NAME: half-life

Consider the compound shown here: CC(C)C[C@H](NC(=O)CNC(=O)[C@@H](NC(=O)[C@H](CC(N)=O)NC(=O)[C@H](CC(N)=O)NC(=O)[C@H](CCC(=O)O)NC(=O)[C@@H]1CCCN1C(=O)[C@H](CC(N)=O)NC(=O)[C@H](CO)NC(=O)[C@H](CCCNC(=N)N)NC(=O)[C@@H](NC(=O)[C@H](CCCCN)NC(=O)[C@H](CO)NC(=O)[C@H](Cc1c[nH]cn1)NC(=O)[C@H](CS)NC(=O)[C@@H](N)C(C)C)[C@@H](C)O)C(C)C)C(=O)O [AF16, VCHSKTRSNPENNVGL] (H-VCHSKTRSNPENNVGL-OH; N-terminus and C-terminus assumed) What is its recorded half-life? ≤ 10 min
